Test system: male Sprague-Dawley rats
TEST SUMMARY: Cardiovascular Assay in anesthetized rats
Type: in vivo
ASSAY CONTEXT: change from vehicle, dose 10 mg/kg, rat
PARAMETER: dP/dt@50 (%)
Give the quantity in %, number only.

[[record]]
molecule = "CO[C@@H](C)c1c(Nc2ccc([C@H](N(C)C(=O)C3CCS(=O)(=O)CC3)C(F)(F)F)cc2)cnc2sc(C)nc12"
parameter = "dP/dt@50 (%)"
reported_measurement = 12

[[record]]
molecule = "CO[C@@H](c1c(Nc2ccc([C@H](N(C)C(=O)C3CCN(C(C)=O)CC3)C(F)(F)F)cc2)cnc2sc(C)nc12)C(F)F"
parameter = "dP/dt@50 (%)"
reported_measurement = 1

[[record]]
molecule = "CO[C@@H](C)c1c(Nc2ccc([C@H](N(C)C(=O)C3CCN(C(C)=O)CC3)C(F)(F)F)cc2)cnc2sc(C)nc12"
parameter = "dP/dt@50 (%)"
reported_measurement = "−5"

[[record]]
molecule = "CO[C@H](c1c(Nc2ccc([C@H](N(C)C(=O)C3CCS(=O)(=O)CC3)C(F)(F)F)cc2)cnc2sc(C)nc12)C(F)F"
parameter = "dP/dt@50 (%)"
reported_measurement = 3


Now for a further molecule.
Form field dP/dt@50 (%), entry CO[C@@H](C)c1c(Nc2ccc([C@H](N(C)C(=O)C3CCS(=O)(=O)CC3)C(F)(F)F)cc2)cnc2cc(Cl)nn12 [Comparative Example A, reference compound] : −7

---

TEST SYSTEM: human MALT-1 protein (Homo sapiens (Human))
Sequence (Q9UDY8 whole entry): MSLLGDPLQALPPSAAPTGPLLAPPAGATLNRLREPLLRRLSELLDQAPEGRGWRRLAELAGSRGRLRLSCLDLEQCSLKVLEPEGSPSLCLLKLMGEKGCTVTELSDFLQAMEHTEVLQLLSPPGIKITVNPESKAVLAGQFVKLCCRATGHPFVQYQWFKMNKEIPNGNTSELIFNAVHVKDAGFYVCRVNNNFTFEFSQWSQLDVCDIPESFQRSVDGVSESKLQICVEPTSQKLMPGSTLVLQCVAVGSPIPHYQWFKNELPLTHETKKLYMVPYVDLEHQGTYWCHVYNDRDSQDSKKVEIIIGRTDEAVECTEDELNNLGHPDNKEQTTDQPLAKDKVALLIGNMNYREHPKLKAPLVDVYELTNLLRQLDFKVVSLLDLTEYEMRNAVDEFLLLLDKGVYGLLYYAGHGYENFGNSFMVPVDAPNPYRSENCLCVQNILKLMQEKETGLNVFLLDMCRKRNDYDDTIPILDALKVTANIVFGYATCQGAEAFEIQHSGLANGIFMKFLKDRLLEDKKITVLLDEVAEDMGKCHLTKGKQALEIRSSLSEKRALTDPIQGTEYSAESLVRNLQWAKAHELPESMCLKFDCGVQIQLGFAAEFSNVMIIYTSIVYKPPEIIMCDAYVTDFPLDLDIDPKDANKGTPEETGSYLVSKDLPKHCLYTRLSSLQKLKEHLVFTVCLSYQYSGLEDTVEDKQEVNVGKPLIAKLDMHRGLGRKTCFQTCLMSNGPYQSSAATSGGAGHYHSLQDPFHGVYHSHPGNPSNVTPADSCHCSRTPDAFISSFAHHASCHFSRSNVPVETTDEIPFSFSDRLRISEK
TEST SUMMARY: MALT-1 Biochemical Assay (Quench-FRET enzyme assay)
ASSAY CONTEXT: human MALT-1 6 nM, substrate 2 μM, 40 min preincubation
Measured pEC50, listed per entry for reference.
Remember, pEC50 is on a log scale: it is -log10 of the molar concentration.

[[record]]
molecule = "Cc1nc2c([C@@H](C)C(F)(F)F)c(Nc3ccc([C@H](N(C)C(=O)C4CCS(=O)(=O)CC4)C(F)(F)F)cc3)cnc2s1 (single isomer, unassigned)"
test_system = "human MALT-1 protein (Homo sapiens (Human))"
reported_measurement = 6.81

[[record]]
molecule = "CO[C@H](c1c(Nc2ccc([C@H](N(C)C(=O)C3CCS(=O)(=O)CC3)C(F)(F)F)cc2)cnc2sc(C)nc12)C(F)F"
test_system = "human MALT-1 protein (Homo sapiens (Human))"
reported_measurement = 6.96

[[record]]
molecule = "CO[C@@H](c1c(Nc2ccc([C@H](N(C)C(=O)C3CCN(C(C)=O)CC3)C(F)(F)F)cc2)cnc2sc(C)nc12)C(F)F"
test_system = "human MALT-1 protein (Homo sapiens (Human))"
reported_measurement = 6.79

[[record]]
molecule = "CO[C@H](c1c(Nc2ccc([C@@H](C(F)F)N(C)C(=O)C3CCN(C(=O)CO)CC3)cc2)cnc2sc(C)nc12)C(F)F"
test_system = "human MALT-1 protein (Homo sapiens (Human))"
reported_measurement = 7.09

[[record]]
molecule = "CO[C@@H](C)c1c(Nc2ccc([C@H](N(C)C(=O)C3CCN(C(=O)[C@@H](C)O)CC3)C(F)(F)F)cc2)cnc2sc(C)nc12"
test_system = "human MALT-1 protein (Homo sapiens (Human))"
reported_measurement = 7.17


Now for a further molecule.
Form field pEC50, entry CO[C@H](c1c(Nc2ccc([C@H](N(C)C(=O)C3CCN(C(=O)CO)CC3)C(F)(F)F)cc2)cnc2sc(C)nc12)C(F)F : 6.85

---

System: male Sprague-Dawley rats
TEST SUMMARY: Cardiovascular Assay in anesthetized rats
Type: in vivo
ASSAY CONTEXT: change from vehicle, dose 3 mg/kg, rat
PARAMETER: dP/dt@50 (%)
Give the quantity in %, number only.

[[record]]
molecule = "CO[C@@H](C)c1c(Nc2ccc([C@H](N(C)C(=O)C3CCS(=O)(=O)CC3)C(F)(F)F)cc2)cnc2cc(Cl)nn12 [Comparative Example A, reference compound]"
units_of_measure = "%"
reported_measurement = "−4"

[[record]]
molecule = "CO[C@H](c1c(Nc2ccc([C@H](N(C)C(=O)C3CCS(=O)(=O)CC3)C(F)(F)F)cc2)cnc2sc(C)nc12)C(F)F [Example 3]"
units_of_measure = "%"
reported_measurement = 0

[[record]]
molecule = "CO[C@@H](C)c1c(Nc2ccc([C@H](N(C)C(=O)C3CCN(C(C)=O)CC3)C(F)(F)F)cc2)cnc2sc(C)nc12 [Example 19]"
units_of_measure = "%"
reported_measurement = "−5"

[[record]]
molecule = "CO[C@@H](C)c1c(Nc2ccc([C@H](N(C)C(=O)C3CCS(=O)(=O)CC3)C(F)(F)F)cc2)cnc2sc(C)nc12 [Example 1]"
units_of_measure = "%"
reported_measurement = 5


Now for a further molecule.
Form field dP/dt@50 (%), entry CO[C@@H](c1c(Nc2ccc([C@H](N(C)C(=O)C3CCN(C(C)=O)CC3)C(F)(F)F)cc2)cnc2sc(C)nc12)C(F)F [Example 33] : 1

---

Test system: male Sprague-Dawley rats
TEST SUMMARY: Cardiovascular Assay in anesthetized rats
Assay type: in vivo
ASSAY CONTEXT: change from vehicle, dose 30 mg/kg, rat
Threshold rule: HR (%) greater than or equal to -10% is 1; below that, 0.

Sample answers from the record:
[[record]]
molecule = "CO[C@H](c1c(Nc2ccc([C@H](N(C)C(=O)C3CCS(=O)(=O)CC3)C(F)(F)F)cc2)cnc2sc(C)nc12)C(F)F"
label = 0

[[record]]
molecule = "CO[C@@H](C)c1c(Nc2ccc([C@H](N(C)C(=O)C3CCS(=O)(=O)CC3)C(F)(F)F)cc2)cnc2cc(Cl)nn12 [Comparative Example A, reference compound]"
label = 0

[[record]]
molecule = "CO[C@@H](C)c1c(Nc2ccc([C@H](N(C)C(=O)C3CCN(C(C)=O)CC3)C(F)(F)F)cc2)cnc2sc(C)nc12"
label = 1


Could you please find out whether CO[C@@H](c1c(Nc2ccc([C@H](N(C)C(=O)C3CCN(C(C)=O)CC3)C(F)(F)F)cc2)cnc2sc(C)nc12)C(F)F has HR (%) that meets -10% or exceeds it?
1

Could you please find out whether CO[C@@H](C)c1c(Nc2ccc([C@H](N(C)C(=O)C3CCS(=O)(=O)CC3)C(F)(F)F)cc2)cnc2sc(C)nc12 has HR (%) that meets -10% or exceeds it?
0

---

Measured EC50, listed per entry for reference.
TEST SYSTEM: UniProtKB Q9UDY8
TEST SUMMARY: MALT-1 Biochemical Assay (Quench-FRET enzyme assay)
ASSAY CONTEXT: human MALT-1 6 nM, substrate 2 μM, 40 min preincubation

Before answering, review these 5 worked examples.
[[record]]
molecule = "CO[C@H](c1c(Nc2ccc([C@@H](C(F)F)N(C)C(=O)C3CCN(C(=O)CO)CC3)cc2)cnc2sc(C)nc12)C(F)(F)F [Example 36]"
reported_measurement = "48 nM"

[[record]]
molecule = "CO[C@H](C)c1c(Nc2ccc([C@H](N(C)C(=O)C3CCN(C(=O)CO)CC3)C(F)(F)F)cc2)cnc2sc(C)nc12 [Example 34]"
reported_measurement = "112 nM"

[[record]]
molecule = "CO[C@@H](C)c1c(Nc2ccc([C@H](N(C)C(=O)C3CCN(C(=O)C(C)(C)O)CC3)C(F)(F)F)cc2)cnc2sc(C)nc12 [Example 23]"
reported_measurement = "139 nM"

[[record]]
molecule = "CO[C@H](C)c1c(Nc2ccc([C@H](N(C)C(=O)C3CCN(C(C)=O)CC3)C(F)(F)F)cc2)cnc2sc(C)nc12 [Example 35]"
reported_measurement = "500 nM"

[[record]]
molecule = "CO[C@H](c1c(Nc2ccc([C@@H](C(F)F)N(C)C(=O)C3CCS(=O)(=O)CC3)cc2)cnc2sc(C)nc12)C(F)F [Example 6]"
reported_measurement = "146 nM"


Form field EC50, entry Cc1nc2c(C(C)C(F)F)c(Nc3ccc([C@H](N(C)C(=O)C4CCS(=O)(=O)CC4)C(F)(F)F)cc3)cnc2s1 (stereo partly drawn) [Example 16] : 106 nM

---

Test system: OCI-LY3 IL6
TEST SUMMARY: MALT-1 Cell IL-6 AlphaLISA Assay
Format: cell-based
ASSAY CONTEXT: Homo sapiens; OCI-LY3 cells, 48 hours incubation; read-out: OCI-LY3 IL6 48 hour Inhibition EC50
Measured log10 of EC50, listed per entry for reference.
# values: log10(EC50), units µM

Before answering, review these 3 worked examples.
[[record]]
compound = "CO[C@@H](c1c(Nc2ccc([C@H](N(C)C(=O)C3CCS(=O)(=O)CC3)C(F)(F)F)cc2)cnc2sc(C)nc12)C(F)F"
reported_measurement = -0.47

[[record]]
compound = "Cc1nc2c([C@@H](C)C(F)(F)F)c(Nc3ccc([C@H](N(C)C(=O)C4CCS(=O)(=O)CC4)C(F)(F)F)cc3)cnc2s1 (single isomer, unassigned)"
reported_measurement = -0.72

[[record]]
compound = "CO[C@@H](C)c1c(Nc2ccc([C@H](N(C)C(=O)C3CCN(C(=O)[C@H](O)CO)CC3)C(F)(F)F)cc2)cnc2sc(C)nc12"
reported_measurement = -0.39


Form field log10 of EC50, entry CO[C@H](C)c1c(Nc2ccc([C@H](N(C)C(=O)C3CCS(=O)(=O)CC3)C(F)(F)F)cc2)cnc2sc(C)nc12 : -1.15

Form field log10 of EC50, entry CO[C@@H](C)c1c(Nc2ccc([C@H](N(C)C(=O)C3CCN(C(=O)[C@@H](C)O)CC3)C(F)(F)F)cc2)cnc2sc(C)nc12 : -0.60

Form field log10 of EC50, entry CO[C@@H](C)c1c(Nc2ccc([C@H](N(C)C(=O)C3CCS(=O)(=O)CC3)C(F)(F)F)cc2)cnc2sc(C(F)F)nc12 : -0.52
